Molecular target: T1, human CD47 (human, UniProt Q08722 19-139)
T1 construct: extracellular domain; also called CD47 ECD
T1 sequence (Q08722 19-139 limits assumed): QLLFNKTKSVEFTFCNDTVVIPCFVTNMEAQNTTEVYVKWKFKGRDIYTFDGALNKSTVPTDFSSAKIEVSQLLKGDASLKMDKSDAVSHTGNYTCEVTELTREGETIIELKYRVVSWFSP
Experiment: SPR, 25 C, 1:1 Langmuir fit
Readout: pKd
Numbers only, as −log10 of the molar value.

{"Binder": "SIRP-α D1 variant fused to Fc variant, SEQ ID NO: 97 (Fc fusion) EEELQVIQPDKSVLVAAGETATLRCTATSLFPVGPIQWFRGAGPGRELIYNQRQGPFPRVTTVSDLTKRNNMDFSIRIGNITPADAGTYYCVKFRKGSPDDVEFKSGAGTELSVRAKPSDKTHTCPPCPAPEAAGAPSVFLFPPKPKDTLMISRTPEVTCVVVDVSHEDPEVKFNWYVDGVEVHNAKTKPREEQYASTYRVVSVLTVLHQDWLNGKEYKCKVSNKALPAPIEKTISKAKGQPREPQVYTLPPSREEMTKNQVSLTCLVKGFYPSDIAVEWESNGQPENNYKTTPPVLDSDGSFFLYSKLTVDKSRWQQGNVFSCSVMHEALHNHYTQKSLSLSPGK", "pKd": 8.81}
{"Binder": "SIRP-α D1 variant polypeptide of SEQ ID NO: 209 (receptor) EEELQIIQPDKSVLVAAGETATLRCTITSLYPVGPIQWFRGAGPGRELIYNQRDGPFPRVTTVSDTTKRNNMDFSIRIGAITPADAGTYYCVKFRKGIPDDVEFKSGAGTELSVRAKPS", "pKd": 8.35}
{"Binder": "SIRP-α D1 variant fused to Fc variant, SEQ ID NO: 104 (Fc fusion) EEELQIIQPDKSVLVAAGETATLRCTITSLFPVGPIQWFRGAGPGRELIYNQREGPFPRVTTVSDTTKRNNMDFSIRIGAITPADAGTYYCVKFRKGSPDDVEFKSGAGTELSVRAKPSDKTHTCPPCPAPEAAGAPSVFLFPPKPKDTLMISRTPEVTCVVVDVSHEDPEVKFNWYVDGVEVHNAKTKPREEQYASTYRVVSVLTVLHQDWLNGKEYKCKVSNKALPAPIEKTISKAKGQPREPQVYTLPPSREEMTKNQVSLTCLVKGFYPSDIAVEWESNGQPENNYKTTPPVLDSDGSFFLYSKLTVDKSRWQQGNVFSCSVMHEALHNHYTQKSLSLSPGK", "pKd": 10.04}
{"Binder": "SIRP-α D1 variant polypeptide of SEQ ID NO: 204 (receptor) EEELQIIQPDKSVLVAAGETATLRCTITSLRPVGPIQWFRGAGPGRELIYNQRDGPFPRVTTVSDTTKRNNMDFSIRIGAITPADAGTYYCVKFRKGSPDDVEFKSGAGTELSVRAKPS", "pKd": 8.46}
{"Binder": "SIRP-α D1 variant polypeptide of SEQ ID NO: 210 (receptor) EEELQIIQPDKSVLVAAGETATLRCTITSLFPVGPIQWFRGAGPGRELIYNQRDGPFPRVTTVSDTTKRNNMDFSIRIGAITPADAGTYYCVKFRKGIPDDVEFKSGAGTELSVRAKPS", "pKd": 8.17}

Then there is this binder:
Q. Which pKd value is on record for SIRP-α D1 variant polypeptide of SEQ ID NO: 206 (receptor) EEELQIIQPDKSVLVAAGETATLRCTITSLRPVGPIQWFRGAGPGRELIYNQRDGPFPRVTTVSDTTKRNNMDFSIRIGAITPADAGTYYCVKFRKGIPDDVEFKSGAGTELSVRAKPS ?
A. 8.28
